Values compiled from the supplement of paper PMC10065799.

- target-entity: FGFR1 (UniProt P11362)
- Sequence (P11362 whole entry, looked up): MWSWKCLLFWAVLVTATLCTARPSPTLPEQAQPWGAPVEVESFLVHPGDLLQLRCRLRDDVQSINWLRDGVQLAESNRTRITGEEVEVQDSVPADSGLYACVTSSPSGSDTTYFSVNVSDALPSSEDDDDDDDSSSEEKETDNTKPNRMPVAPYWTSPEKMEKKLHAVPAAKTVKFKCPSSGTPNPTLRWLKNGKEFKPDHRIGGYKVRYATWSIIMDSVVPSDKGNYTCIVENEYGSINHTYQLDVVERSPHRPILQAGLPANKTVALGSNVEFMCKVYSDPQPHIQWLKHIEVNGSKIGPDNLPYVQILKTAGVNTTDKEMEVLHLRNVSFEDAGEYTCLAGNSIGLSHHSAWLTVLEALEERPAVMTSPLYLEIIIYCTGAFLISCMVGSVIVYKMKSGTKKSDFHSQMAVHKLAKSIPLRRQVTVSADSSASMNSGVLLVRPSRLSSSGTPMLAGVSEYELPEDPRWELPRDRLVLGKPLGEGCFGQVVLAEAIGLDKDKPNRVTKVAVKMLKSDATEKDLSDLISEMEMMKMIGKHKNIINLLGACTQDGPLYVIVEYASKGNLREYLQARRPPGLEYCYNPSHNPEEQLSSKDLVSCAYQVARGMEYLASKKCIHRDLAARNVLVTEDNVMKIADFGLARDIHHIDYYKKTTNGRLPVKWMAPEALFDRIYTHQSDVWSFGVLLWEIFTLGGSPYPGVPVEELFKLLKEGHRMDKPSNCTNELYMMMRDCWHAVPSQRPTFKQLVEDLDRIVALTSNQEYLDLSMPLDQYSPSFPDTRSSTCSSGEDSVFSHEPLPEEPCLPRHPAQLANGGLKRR
- test-details: phosphorylation enrichment, bacterial display (enrichment ratio); higher = better substrate or ligand; peptides without Tyr show the background;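 note: 11-residue human phosphosite peptides and single-mutation variants displayed on the E. coli surface, counted by deep sequencing, each peptide's frequency after selection divided by its frequency in the unselected input library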;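 note: frequency after pTyr selection over input frequency; kinase dosed for 20-30% of maximal phosphorylation in three min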
parameter: phosphorylation enrichment
Numbers only.

Would you please look over these solved cases?
- sequence-record: "STEEQYRICQV [EFHC1_Y115_R118C]"
  phosphorylation enrichment: 0.599
- sequence-record: "TVSSDYLHPQF [CCPG1_Y569_F566S_YF]"
  phosphorylation enrichment: 0.514
- sequence-record: "DTDSSYCIPTA [GAB1_Y373]"
  phosphorylation enrichment: 0.592

List the reported phosphorylation enrichment of each sequence below.
1. KIVQDYLEKFY [MMP8_Y36_T32I]
2. KGYRGYSYDDI [TMEM230_Y110]
3. RAMRRYLEWGE [ERBB3_Y680_R683W]
4. FKWAVYCIIGR [NUP93_Y391_R388W_YF]

1: 0.521; 2: 0.485; 3: 0.427; 4: 0.614

---

- target-entity: Hck (UniProt P08631)
- Sequence (P08631 whole entry, looked up): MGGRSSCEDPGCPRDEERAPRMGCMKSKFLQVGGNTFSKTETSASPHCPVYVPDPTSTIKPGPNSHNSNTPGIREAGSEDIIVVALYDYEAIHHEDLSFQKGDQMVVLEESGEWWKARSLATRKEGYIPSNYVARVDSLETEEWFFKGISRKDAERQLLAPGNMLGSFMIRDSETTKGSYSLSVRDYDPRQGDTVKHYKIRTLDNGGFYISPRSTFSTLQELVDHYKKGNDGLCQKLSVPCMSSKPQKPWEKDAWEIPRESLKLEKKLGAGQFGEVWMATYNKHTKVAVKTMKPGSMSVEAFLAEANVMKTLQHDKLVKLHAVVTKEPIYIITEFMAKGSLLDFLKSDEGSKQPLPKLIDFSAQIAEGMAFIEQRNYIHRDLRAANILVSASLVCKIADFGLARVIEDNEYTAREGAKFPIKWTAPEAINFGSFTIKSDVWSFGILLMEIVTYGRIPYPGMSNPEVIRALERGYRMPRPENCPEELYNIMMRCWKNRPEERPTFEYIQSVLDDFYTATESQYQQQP
- test-details: phosphorylation enrichment, bacterial display (enrichment ratio); higher = better substrate or ligand; peptides without Tyr show the background
# cutoff 0.6 applies to phosphorylation enrichment; >= gives rule met, < gives rule not met

Here's what some known entries look like.
- sequence-record: "RRVLVYGDRGA [QDPR_Y16_G18D]"
  label-value: "rule not met"
- sequence-record: "TKDTFYKQPVF [GBA_Y451_M455V]"
  label-value: "rule not met"
- sequence-record: "DPLLTYRFPPN [LMNA_Y481_K486N]"
  label-value: "rule not met"

State whether the measured phosphorylation enrichment reaches 0.6, counting equality as reaching it, for ALEHKYWALGQ [MAP1A_Y1555_Q1553H]
rule met

State whether the measured phosphorylation enrichment reaches 0.6, counting equality as reaching it, for RVLHNYLVWRV [ECEL1_Y400]
rule met

State whether the measured phosphorylation enrichment reaches 0.6, counting equality as reaching it, for TFGVAYRAKDK [CDK11B_Y453_V452A_YF]
rule not met

State whether the measured phosphorylation enrichment reaches 0.6, counting equality as reaching it, for KDPPDYKFQPR [SOX9_Y172_H169P_YF]
rule not met

State whether the measured phosphorylation enrichment reaches 0.6, counting equality as reaching it, for DLEKTYNTYRS [B4GALNT2_Y538_A533D]
rule met

State whether the measured phosphorylation enrichment reaches 0.6, counting equality as reaching it, for LGSNTYPFLLT [SAG_Y120]
rule not met

State whether the measured phosphorylation enrichment reaches 0.6, counting equality as reaching it, for VVEDGYEFFAK [PPP1CB_Y254]
rule not met

State whether the measured phosphorylation enrichment reaches 0.6, counting equality as reaching it, for TMKSRYMELYD [BBS2_Y644]
rule met

State whether the measured phosphorylation enrichment reaches 0.6, counting equality as reaching it, for CASQLCPRHKH [DCTN4_Y263_Y263C]
rule not met

State whether the measured phosphorylation enrichment reaches 0.6, counting equality as reaching it, for RLDGEYFTLQI [TP53_Y327_P322R]
rule met

State whether the measured phosphorylation enrichment reaches 0.6, counting equality as reaching it, for IHFAIYLLKFS [ARMC9_Y107_YF]
rule not met

State whether the measured phosphorylation enrichment reaches 0.6, counting equality as reaching it, for VDEERYDIEGK [TNNI3_Y112_A116G]
rule met

State whether the measured phosphorylation enrichment reaches 0.6, counting equality as reaching it, for LGRKLYSIATP [ABHD12_Y345_A349T]
rule met

State whether the measured phosphorylation enrichment reaches 0.6, counting equality as reaching it, for DIPIRYSIMGV [CDH4_Y205_T208M]
rule not met

State whether the measured phosphorylation enrichment reaches 0.6, counting equality as reaching it, for FGSLLYKFAFK [FANCD2_Y458_YF]
rule not met

State whether the measured phosphorylation enrichment reaches 0.6, counting equality as reaching it, for SLVGCYNLTFM [HS6ST3_Y323]
rule met

State whether the measured phosphorylation enrichment reaches 0.6, counting equality as reaching it, for PGGNIYISPLK [RB1_Y805]
rule met
